Where do the numbers come from? From paper PMC2956967.

biological target: CYP102A2 (Bacillus subtilis, UniProt O08394); construct: full-length heme-diflavin reductase fusion, about 119 kDa per active site; PCR from genomic DNA, pCR T7/CT-TOPO, E. coli BL21(DE3); untagged enzyme and C-terminal 6His version both made, said kinetically alike; test: product inhibition, NADPH oxidation at […] nm
Sequence (O08394 whole entry, the tested form may be a part): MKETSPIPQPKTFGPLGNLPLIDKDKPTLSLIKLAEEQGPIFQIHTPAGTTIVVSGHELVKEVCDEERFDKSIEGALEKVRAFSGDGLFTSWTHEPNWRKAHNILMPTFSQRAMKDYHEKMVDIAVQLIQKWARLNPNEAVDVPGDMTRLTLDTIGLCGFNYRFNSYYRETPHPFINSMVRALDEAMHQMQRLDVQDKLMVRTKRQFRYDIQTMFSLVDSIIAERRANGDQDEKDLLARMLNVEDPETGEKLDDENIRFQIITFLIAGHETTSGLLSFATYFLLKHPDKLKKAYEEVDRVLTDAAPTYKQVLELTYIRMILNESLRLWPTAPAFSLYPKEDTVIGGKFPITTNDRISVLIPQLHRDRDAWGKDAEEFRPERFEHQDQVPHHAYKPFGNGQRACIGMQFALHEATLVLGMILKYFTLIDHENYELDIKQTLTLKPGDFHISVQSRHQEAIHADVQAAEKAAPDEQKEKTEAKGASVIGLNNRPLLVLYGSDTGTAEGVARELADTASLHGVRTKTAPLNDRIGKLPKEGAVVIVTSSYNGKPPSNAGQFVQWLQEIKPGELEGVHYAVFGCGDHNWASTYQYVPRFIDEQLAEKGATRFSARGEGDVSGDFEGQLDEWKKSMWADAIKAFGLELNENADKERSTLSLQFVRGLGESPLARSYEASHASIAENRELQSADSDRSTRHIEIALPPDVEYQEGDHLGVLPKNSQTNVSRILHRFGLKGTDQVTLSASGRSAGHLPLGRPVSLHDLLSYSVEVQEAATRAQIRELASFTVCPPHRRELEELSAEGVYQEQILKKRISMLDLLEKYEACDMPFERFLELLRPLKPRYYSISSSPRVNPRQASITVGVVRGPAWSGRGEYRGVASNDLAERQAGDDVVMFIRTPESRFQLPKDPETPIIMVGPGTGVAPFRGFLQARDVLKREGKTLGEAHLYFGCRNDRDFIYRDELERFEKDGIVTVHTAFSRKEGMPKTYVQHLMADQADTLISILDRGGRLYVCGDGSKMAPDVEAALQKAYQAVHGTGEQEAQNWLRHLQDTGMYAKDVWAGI
Reported endpoint: pKi
Here pKi is given on a logarithmic scale as minus log10 of the concentration in mol/L.

Q) Give pKi for NC(=O)c1ccc[n+]([C@@H]2O[C@H](COP(=O)(O)OP(=O)(O)OC[C@H]3O[C@@H](n4cnc5c(N)ncnc54)[C@H](OP(=O)(O)O)[C@@H]3O)[C@@H](O)[C@H]2O)c1 [NADP^+]
A) 4.00
